- PROTOCOL DETAILS: 1-octanol/phosphate buffered saline distribution coefficient, log D of the compound at 400000 cpm at pH 7.4 by gamma counting method
- Format: physicochemical

| COMPOUND | logD |
| --- | --- |
| Cn1c(COP(=O)(N(CCBr)Cc2cn(Cc3ccccc3)nn2)N(CCBr)Cc2nnn(Cc3ccccc3)c2[125I])cnc1[N+](=O)[O-] (stereo unspecified) | 0.55 |

* * *

- Tested on: DU-145
- PROTOCOL DETAILS: Cytotoxicity against human DU145 cells incubated for 2 hrs under normoxic condition measured after 72 hrs by Alamar blue assay
- Format: functional, cell-based

| MOLECULE | IC50 [µM] |
| --- | --- |
| Cn1c(COP(=O)(NCCBr)NCCBr)cnc1[N+](=O)[O-] [EVOFOSFAMIDE] | 842 |
